List of EC50 values.
- EXPERIMENTAL_TARGET: Glucagon-like peptide 1 receptor (Homo sapiens)
- Sequence (P43220 whole entry): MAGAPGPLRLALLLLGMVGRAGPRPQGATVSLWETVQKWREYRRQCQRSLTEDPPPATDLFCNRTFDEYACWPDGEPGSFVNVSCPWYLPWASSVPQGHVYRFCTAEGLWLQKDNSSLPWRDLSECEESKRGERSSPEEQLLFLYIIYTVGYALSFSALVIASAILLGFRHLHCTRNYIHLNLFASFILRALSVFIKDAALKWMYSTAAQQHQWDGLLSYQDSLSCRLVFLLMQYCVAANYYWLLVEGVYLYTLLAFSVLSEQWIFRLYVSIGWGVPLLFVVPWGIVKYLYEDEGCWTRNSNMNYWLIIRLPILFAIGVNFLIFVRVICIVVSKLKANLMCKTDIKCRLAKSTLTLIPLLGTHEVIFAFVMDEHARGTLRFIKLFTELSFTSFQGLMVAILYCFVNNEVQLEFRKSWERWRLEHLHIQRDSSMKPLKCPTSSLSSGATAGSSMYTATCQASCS
- TEST_PROTOCOL: Agonist activity at human GLP-1R expressed in HEK293 cells assessed as stimulation of cAMP accumulation incubated for 20 mins in presence of 0% HSA
- Assay type: functional, cell-based
*1 amine or outer side, *2 acyl side, *3 side chain or, on linkers, in order; H or OH if unused. Bridges are numbered along the chain shown (N, C = ends). [ ]: non-standard residue; d: D form. X4 = O=C(O)CCCCCCCCCCCCCCCCC(=O)NC(CCC(=O)NCCOCCOCC(=O)NCCOCCOCC(=O)NCCCCCCNC(=O)C(CCCCNC(=O)CCN1C(=O)CC([*:1])C1=O)NC(=O)CCN1C(=O)CC([*:2])C1=O)C(=O)O; X5 = O=C(O)CCCCCCCCCCCCCCCCC(=O)NC(CCC(=O)NCCOCCOCC(=O)NCCOCCOCC(=O)NCCCCCCNC(=O)C(CCCCNC(=O)CCN1C(=O)CC([*:2])C1=O)NC(=O)CCN1C(=O)CC([*:1])C1=O)C(=O)O; X2 = O=C(O)CCCCCCCCCCCCCCCCC(=O)NC(CCC(=O)NCCOCCOCC(=O)NCCCCCCNC(=O)C(CCCCNC(=O)CCN1C(=O)CC([*:2])C1=O)NC(=O)CCN1C(=O)CC([*:1])C1=O)C(=O)O; X3 = O=C(O)CCCCCCCCCCCCCCCCC(=O)NC(CCC(=O)NCCOCCOCC(=O)NCCCCCCNC(=O)C(CCCCNC(=O)CCN1C(=O)CC([*:1])C1=O)NC(=O)CCN1C(=O)CC([*:2])C1=O)C(=O)O; X7 = O=C(O)CCCCCCCCCCCCCCCCC(=O)NCCOCCOCC(=O)NCCCCCCNC(=O)C(CCCCNC(=O)CCN1C(=O)CC([*:1])C1=O)NC(=O)CCN1C(=O)CC([*:2])C1=O; X8 = O=C(O)CCCCCCCCCCCCCCCCC(=O)NCCOCCOCC(=O)NCCCCCCNC(=O)C(CCCCNC(=O)CCN1C(=O)CC([*:2])C1=O)NC(=O)CCN1C(=O)CC([*:1])C1=O; X1 = CCCCCCCCCCCCCCCC(=O)NCCCCCCNC(=O)C(CCCCNC(=O)CCN1C(=O)CC([*:1])C1=O)NC(=O)CCN1C(=O)CC([*:2])C1=O; X6 = CCCCCCCCCCCCCCCC(=O)NCCCCCCNC(=O)C(CCCCNC(=O)CCN1C(=O)CC([*:2])C1=O)NC(=O)CCN1C(=O)CC([*:1])C1=O; Aib = CC(C)(N)C(=O)O

[
  {
    "SUBSTANCE": "H-H[Aib]EGTYTNDVTEYCEEEAAKCFIEWLIKGKPSSGAPPSKKKKKK-NH2 (linker 14-21 via X7)",
    "EC50": "0.1 nM"
  },
  {
    "SUBSTANCE": "H-H[Aib]EGTYTNDVTEYLEEEAAKCFIEWLICGKPSSGAPPSKKKKKK-NH2 (linker 21-28 via X5)",
    "EC50": "0.034 nM"
  },
  {
    "SUBSTANCE": "H-H[Aib]EGTYTNDVTEYLEEEAAKCFIEWLICGKPSSGAPPSKKKKKK-NH2 (linker 21-28 via X6)",
    "EC50": "0.14 nM"
  },
  {
    "SUBSTANCE": "H-H[Aib]EGTYTNDVTEYCEEEAAKCFIEWLIKGKPSSGAPPSKKKKKK-NH2 (linker 14-21 via X4)",
    "EC50": "0.15 nM"
  },
  {
    "SUBSTANCE": "H-H[Aib]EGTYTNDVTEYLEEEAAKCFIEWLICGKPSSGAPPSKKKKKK-NH2 (linker 21-28 via X8)",
    "EC50": "0.12 nM"
  },
  {
    "SUBSTANCE": "H-H[Aib]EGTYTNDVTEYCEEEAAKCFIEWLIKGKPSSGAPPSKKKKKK-NH2 (linker 14-21 via X1)",
    "EC50": "0.093 nM"
  },
  {
    "SUBSTANCE": "H-H[Aib]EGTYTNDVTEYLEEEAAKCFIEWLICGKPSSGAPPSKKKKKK-NH2 (linker 21-28 via X2)",
    "EC50": "0.18 nM"
  },
  {
    "SUBSTANCE": "H-H[Aib]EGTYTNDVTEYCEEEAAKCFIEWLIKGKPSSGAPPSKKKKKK-NH2 (linker 14-21 via X3)",
    "EC50": "0.16 nM"
  }
]
